Each record here notes measured YIELD REDUCTION.
tested on: wild-type HAdV5; test: Virus yield reduction (burst assay, TCID50), HAdV5; assay type: cell-based

Molecule	YIELD REDUCTION
CC1CN(C(=O)Cc2ccccc2)CCN1C(=S)Nc1ccc([N+](=O)[O-])cc1 (stereo not shown)	25.59 ± 10.45
CC1CN(C(=O)OC(C)(C)C)CCN1C(=S)Nc1ccc(F)cc1 (stereo not shown)	12.08 ± 2.78
CC1CN(C(=O)Cc2ccccc2)CCN1C(=S)Nc1cc(C(F)(F)F)cc(C(F)(F)F)c1 (stereo not shown)	33.42 ± 10.16
CC1CN(C(=O)Cc2ccccc2)CCN1C(=S)Nc1ccc(C#N)cc1 (stereo not shown)	18.39 ± 5.44

====

Reported CC50 values for the following compounds.
tested on: A549 cells; test: Cytotoxicity assay (alamarBlue cell viability); format: cell-based, Human
Measure Name: CC50

Compound	Result
CC1CN(C(=O)OC(C)(C)C)CCN1C(=S)Nc1ccc(C#N)cc1 (stereo not shown)	175 µM
CC1CN(C(=O)Cc2ccccc2)CCN1C(=S)Nc1ccc(Cl)cc1 (stereo not shown)	175 µM
CC1CN(C(=O)Cc2ccccc2)CCN1C(=S)Nc1ccc(C#N)cc1 (stereo not shown)	175 µM
CC1CN(C(=O)Cc2ccccc2)CCN1C(=S)Nc1cc(C(F)(F)F)cc(C(F)(F)F)c1 (stereo not shown)	130 µM
CC1CN(C(=O)OC(C)(C)C)CCN1C(=S)Nc1ccc(Cl)cc1 (stereo not shown)	167 µM
CC1CN(C(=O)Cc2ccccc2)CCN1C(=S)Nc1ccc([N+](=O)[O-])cc1 (stereo not shown)	210 µM
CC1CN(C(=O)OC(C)(C)C)CCN1C(=S)Nc1ccc(F)cc1 (stereo not shown)	200 µM

====

system: Acinetobacter baumannii strains resistant to colistine; assay: Minimal inhibitory concentration (MIC), microdilution in MHBII; format: cell-based; details: strain Ab 14, MHBII, 5×10^5 CFU/ml, 18 h

Molecule	CMI (MIC) Ab 14
CC1CN(C(=O)OC(C)(C)C)CCN1C(=S)Nc1ccc(Cl)cc1 (centres unmarked)	50 µM
Cc1ccc(NC(=S)N2CCN(C(=O)OC(C)(C)C)CC2C)cc1 (centres unmarked)	>50 µM
COc1ccc(NC(=S)N2CCN(C(=O)OC(C)(C)C)CC2C)cc1 (centres unmarked)	>50 µM
CC1CN(C(=O)Cc2ccccc2)CCN1C(=S)Nc1ccc(Cl)cc1 (centres unmarked)	25 µM
CC1CN(C(=O)OC(C)(C)C)CCN1C(=S)Nc1cc(C(F)(F)F)cc(C(F)(F)F)c1 (centres unmarked)	3.12 µM
CC1CN(C(=O)OC(C)(C)C)CCN1C(=S)Nc1ccc(C#N)cc1 (centres unmarked)	50 µM
CC1CN(C(=O)Cc2ccccc2)CCN1C(=S)Nc1cc(C(F)(F)F)cc(C(F)(F)F)c1 (centres unmarked)	3.12 µM
CC1CN(C(=O)OC(C)(C)C)CCN1C(=S)Nc1ccc([N+](=O)[O-])cc1 (centres unmarked)	25 µM

====

tested on: HAdV5-GFP; experiment: Entry assay, HAdV5-GFP in A549 cells (GFP expression); format: cell-based

Compound	Starting Inhibition assay
COc1ccc(NC(=S)N2CCN(C(=O)OC(C)(C)C)CC2C)cc1 (stereo not drawn)	62.79
CC1CN(C(=O)OC(C)(C)C)CCN1C(=S)Nc1ccc(Cl)cc1 (stereo not drawn)	64.11
CC1CN(C(=O)OC(C)(C)C)CCN1C(=S)Nc1ccc(C#N)cc1 (stereo not drawn)	58.11
CC1CN(C(=O)Cc2ccccc2)CCN1C(=S)Nc1ccc(Cl)cc1 (stereo not drawn)	59.51
COc1ccc(NC(=S)N2CCN(C(=O)Cc3ccccc3)CC2C)cc1 (stereo not drawn)	61.99
CC1CN(C(=O)Cc2ccccc2)CCN1C(=S)Nc1cc(C(F)(F)F)cc(C(F)(F)F)c1 (stereo not drawn)	94.46
CC1CN(C(=O)Cc2ccccc2)CCN1C(=S)Nc1ccc(C(F)(F)F)cc1 (stereo not drawn)	43.12
CC1CN(C(=O)Cc2ccccc2)CCN1C(=S)Nc1ccc([N+](=O)[O-])cc1 (stereo not drawn)	60.79
Cc1ccc(NC(=S)N2CCN(C(=O)Cc3ccccc3)CC2C)cc1 (stereo not drawn)	73.72

====

tested on: HAdV5-GFP; test: Plaque assay, HAdV5-GFP in 293β5 cells; type: cell-based; details: ratio CC50 to IC50, HAdV5
Measure Name: Selectivity Index (SI) HAdV5

Molecule	Result
O=C(c1cc2ccccc2o1)N1CCN(C(=O)Nc2ccccc2[N+](=O)[O-])C(c2ccccc2)C1 (stereo not drawn) [Compound 64]	53.3
O=C(c1cc2ccccc2o1)N1CCN(C(=O)Nc2cc(C(F)(F)F)ccc2Cl)C(c2ccccc2)C1 (stereo not drawn) [Compound 65]	116.2
O=C(c1cc2ccccc2o1)N1CCN(C(=O)Nc2ccc([N+](=O)[O-])cc2)C(c2ccccc2)C1 (stereo not drawn) [Compound 59]	93.5
N#Cc1ccc(NC(=O)N2CCN(C(=O)c3cc4ccccc4o3)CC2c2ccccc2)cc1 (stereo not drawn) [Compound 63]	42.7
CC(C)(C)OC(=O)N1CCN(C(=O)Nc2ccc([N+](=O)[O-])cc2)C(c2ccccc2)C1 (stereo not drawn) [Compound 46]	47.3
O=C(c1cc2ccccc2o1)N1CCN(C(=O)Nc2ccc(Cl)cc2)C(c2ccccc2)C1 (stereo not drawn) [Compound 60]	79

====

test system: Acinetobacter baumannii strains resistant to colistine; assay: Minimal inhibitory concentration (MIC), microdilution in MHBII; assay type: cell-based; conditions: strain Ab 17, MHBII, 5×10^5 CFU/ml, 18 h

Compound	CMI (MIC) Ab 17, µM
Cc1ccc(NC(=S)N2CCN(C(=O)OC(C)(C)C)CC2C)cc1 (stereo not shown)	50
CC1CN(C(=O)Cc2ccccc2)CCN1C(=S)Nc1ccc([N+](=O)[O-])cc1 (stereo not shown)	25
CC1CN(C(=O)Cc2ccccc2)CCN1C(=S)Nc1ccc(C(F)(F)F)cc1 (stereo not shown)	25
CC1CN(C(=O)Cc2ccccc2)CCN1C(=S)Nc1ccc(Cl)cc1 (stereo not shown)	25
Cc1ccc(NC(=S)N2CCN(C(=O)Cc3ccccc3)CC2C)cc1 (stereo not shown)	25
CC1CN(C(=O)Cc2ccccc2)CCN1C(=S)Nc1cc(C(F)(F)F)cc(C(F)(F)F)c1 (stereo not shown)	3.12
CC1CN(C(=O)Cc2ccccc2)CCN1C(=S)Nc1ccc(C#N)cc1 (stereo not shown)	50
CC1CN(C(=O)OC(C)(C)C)CCN1C(=S)Nc1ccc(Cl)cc1 (stereo not shown)	50
COc1ccc(NC(=S)N2CCN(C(=O)Cc3ccccc3)CC2C)cc1 (stereo not shown)	50
CC1CN(C(=O)OC(C)(C)C)CCN1C(=S)Nc1ccc(C#N)cc1 (stereo not shown)	25

====

test: Cytotoxicity assay (alamarBlue cell viability); assay type: cell-based, Human; conditions: human, A549 cells
Measure Name: CC50 at 48 h

Molecule	Measure Name	Result
CC1CN(C(=O)c2cc3ccccc3o2)CCN1C(=O)Nc1ccccc1[N+](=O)[O-] (centres unmarked)	CC50 at 48 h	> 200 µM
CC1CN(C(=O)c2cc3ccccc3o2)CCN1C(=O)Nc1ccc(F)cc1 (centres unmarked)	CC50 at 48 h	> 200 µM

====

Parameter: CC50. Scope: all listed entries.
test system: A549 cells; assay: Cytotoxicity assay (alamarBlue cell viability); type: cell-based, Human; conditions: A549 cells, 48 h; read-out: CC50
Measure Name: CC50

Molecule	Measure Name	Result
CC(C)(C)OC(=O)N1CCN(C(=O)Nc2ccc([N+](=O)[O-])cc2)C(c2ccccc2)C1 (stereo not drawn)	CC50	161 µM
N#Cc1ccc(NC(=O)N2CCN(C(=O)c3cc4ccccc4o3)CC2c2ccccc2)cc1 (stereo not drawn)	CC50	200 µM
O=C(c1cc2ccccc2o1)N1CCN(C(=O)Nc2ccccc2[N+](=O)[O-])C(c2ccccc2)C1 (stereo not drawn)	CC50	132 µM

====

Compound	melting point
CC1CN(C(=O)C(C)(C)C)CCN1C(=O)c1ccc([N+](=O)[O-])cc1 (stereo not shown)	143 to 145 °C
O=C(c1cc2ccccc2o1)N1CCN(C(=O)Nc2ccc(C(F)(F)F)cc2)C(c2ccccc2)C1 (stereo not shown)	134 to 136 °C
CC1CN(C(=O)OC(C)(C)C)CCN1C(=O)Nc1ccccc1[N+](=O)[O-] (stereo not shown)	199 to 201 °C
CC1CN(C(=O)OC(C)(C)C)CCN1C(=O)Nc1cc(C(F)(F)F)ccc1Cl (stereo not shown)	98 to 100 °C
CC1CN(C(=O)c2ccccc2)CCN1C(=O)c1ccc([N+](=O)[O-])cc1 (stereo not shown)	103 to 105 °C
COc1ccc(NC(=O)N2CCN(C(=O)C(C)(C)C)CC2c2ccccc2)cc1 (stereo not shown)	62 to 65 °C
CC(C)(C)C(=O)N1CCN(C(=O)Nc2ccc(C#N)cc2)C(c2ccccc2)C1 (stereo not shown)	151 to 153 °C
CC1CN(C(=O)c2cc3ccccc3o2)CCN1C(=O)Nc1ccccc1F (stereo not shown)	127 to 129 °C
COc1ccc(NC(=O)N2CCN(C(=O)c3cc4ccccc4o3)CC2C)cc1 (stereo not shown)	170 to 172 °C
COc1ccc(C(=O)N2CCN(C(=O)C(C)(C)C)CC2C)cc1 (stereo not shown)	96 to 97 °C
O=C(c1cc2ccccc2o1)N1CCN(C(=O)Nc2ccc(F)cc2)C(c2ccccc2)C1 (stereo not shown)	122 to 124 °C
CC1CN(C(=O)OC(C)(C)C)CCN1C(=O)c1ccc([N+](=O)[O-])cc1 (stereo not shown)	115 to 117 °C
CC1CN(C(=O)c2cc3ccccc3o2)CCN1C(=O)Nc1ccc(F)cc1 (stereo not shown)	93 to 95 °C
CC1CN(C(=O)c2cc3ccccc3o2)CCN1C(=O)Nc1ccc(F)cc1F (stereo not shown)	163 to 165 °C
CC1CN(C(=O)OC(C)(C)C)CCN1C(=O)Nc1ccc(Cl)c(C(F)(F)F)c1 (stereo not shown)	157 to 159 °C
COc1ccc(C(=O)N2CCN(C(=O)OC(C)(C)C)CC2C)cc1 (stereo not shown)	84 to 87 °C
